Molecular target: human 15-LOX-1 (Homo sapiens, UniProt P16050)
Construct: Human 15-LOX-1 was prepared from isolated human eosinophil based on the procedure reported by Sigal et al; from tissue; host or cells: eosinophils purified from blood of hypereosinophilic human donors; 100,000 g supernatant, 30% and 60% ammonium sulfate pellets
Sequence (P16050 whole entry): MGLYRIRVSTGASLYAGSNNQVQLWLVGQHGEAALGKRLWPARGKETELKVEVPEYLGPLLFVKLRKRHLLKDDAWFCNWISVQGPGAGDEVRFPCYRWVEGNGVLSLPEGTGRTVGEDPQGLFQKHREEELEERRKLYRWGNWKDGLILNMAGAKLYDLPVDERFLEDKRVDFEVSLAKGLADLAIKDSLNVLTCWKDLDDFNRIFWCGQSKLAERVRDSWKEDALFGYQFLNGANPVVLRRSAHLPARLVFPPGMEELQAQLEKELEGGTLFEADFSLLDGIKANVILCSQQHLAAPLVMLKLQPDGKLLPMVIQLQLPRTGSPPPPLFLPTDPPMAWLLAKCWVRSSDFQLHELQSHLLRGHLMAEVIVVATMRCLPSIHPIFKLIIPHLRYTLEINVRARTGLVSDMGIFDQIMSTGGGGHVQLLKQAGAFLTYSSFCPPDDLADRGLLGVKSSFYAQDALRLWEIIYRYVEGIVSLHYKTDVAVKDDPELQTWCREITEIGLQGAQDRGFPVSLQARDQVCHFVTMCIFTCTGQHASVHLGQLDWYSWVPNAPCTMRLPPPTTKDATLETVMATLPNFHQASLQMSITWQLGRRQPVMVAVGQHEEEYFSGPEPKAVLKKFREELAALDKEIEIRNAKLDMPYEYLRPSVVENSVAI
Assay: Lipoxygenase inhibitory assessment (DMAB-MBTH peroxide method, linoleic acid substrate)
Type: biochemical
Conditions: human 15-LOX-1 from eosinophils (crude), linoleic acid, 30°C; ± SD (n = 3); read-out: IC50
Reported log10 of IC50 values for the following molecules.
MEASUREMENT_LABEL: log10 of IC50 (log10 of the value in µM)

                                    molecule  measurement_label  meas_value
 0  C=CCOc1cccc2cc(C(=O)O)c(=O)oc12 [Compound 18a]      log10 of IC50        2.47
 1  CC(C)=CCOc1ccc2cc(C(=O)O)c(=O)oc2c1 [Compound 12b]      log10 of IC50        1.91
 2           C=CCOc1cccc2oc(=O)c(C(=O)O)cc12      log10 of IC50        1.97
 3  CC(C)=CCC/C(C)=C/COc1ccc2oc(=O)c(C(=O)O)cc2c1      log10 of IC50        1.33
 4  Cc1nc(N2CCN(C)CC2)nc2c1Sc1ccccc1N2 [Compound 4-MMPB, reference compound]      log10 of IC50        1.23
 5  CC(C)=CCOc1cccc2cc(C(=O)O)c(=O)oc12 [Compound 18b]      log10 of IC50        2.42
 6  CC(C)=CCC/C(C)=C/COc1cccc2oc(=O)c(C(=O)O)cc12      log10 of IC50        0.68
 7       CC(C)=CCOc1cccc2oc(=O)c(C(=O)O)cc12      log10 of IC50        1.80
 8  C=CCOc1ccc2cc(C(=O)O)c(=O)oc2c1 [Compound 12a]      log10 of IC50        2.06
 9  CC(C)=CCC/C(C)=C/COc1cccc2cc(C(=O)O)c(=O)oc12 [Compound 18c]      log10 of IC50        1.31
10  CC(C)=CCC/C(C)=C/COc1ccc2cc(C(=O)O)c(=O)oc2c1 [Compound 12c]      log10 of IC50        1.08
11           C=CCOc1ccc2oc(=O)c(C(=O)O)cc2c1      log10 of IC50        2.47
12       CC(C)=CCOc1ccc2oc(=O)c(C(=O)O)cc2c1      log10 of IC50        2.36
